Each recorded value in this set is attributed to patent US20230055408A1.

Target: T1, human CEA protein on the cell surface (human, UniProt P06731 35-685)
T1 construct: whole, on cells; also called CEACAM-5; CD66e
T1 sequence (looked up): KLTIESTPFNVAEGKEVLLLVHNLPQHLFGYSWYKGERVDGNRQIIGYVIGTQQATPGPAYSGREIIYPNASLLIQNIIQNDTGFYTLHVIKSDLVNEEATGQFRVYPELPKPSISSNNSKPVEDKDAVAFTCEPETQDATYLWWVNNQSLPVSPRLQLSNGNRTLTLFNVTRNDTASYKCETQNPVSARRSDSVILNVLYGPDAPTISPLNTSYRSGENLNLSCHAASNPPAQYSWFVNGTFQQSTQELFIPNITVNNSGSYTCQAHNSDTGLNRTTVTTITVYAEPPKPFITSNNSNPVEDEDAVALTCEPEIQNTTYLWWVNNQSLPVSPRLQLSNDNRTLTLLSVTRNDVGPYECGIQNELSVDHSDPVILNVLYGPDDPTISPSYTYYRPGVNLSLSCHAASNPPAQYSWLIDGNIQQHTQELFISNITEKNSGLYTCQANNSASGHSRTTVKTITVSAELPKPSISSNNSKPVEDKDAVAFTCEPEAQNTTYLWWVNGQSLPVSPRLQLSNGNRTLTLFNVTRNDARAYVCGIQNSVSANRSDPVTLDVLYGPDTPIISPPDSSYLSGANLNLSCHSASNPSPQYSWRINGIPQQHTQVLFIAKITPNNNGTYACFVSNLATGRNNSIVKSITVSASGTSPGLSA
Assay: FACS, MKN45 cells
Recorded pEC50 by entry
# pEC50 is unitless: minus log10 of the molar concentration; print number only

Consider the worked cases shown below.
| BINDER | pEC50 |
| --- | --- |
| Hu67-7 (antibody, V domains shown) VH: EVQLVQSGAEVKKPGESLKISCKGSGYSFTDYHMNWVRQMPGKGLEWMGDINPDIGGTSYNQNFKGQVTISADKSISTAYLQWSSLKASDTAMYYCARWDFDSFANWGQGTLVTVSS VL: EIVMTQSPATLSVSPGERATLSCRASESVSIIGTNLIHWYQQKPGQAPRLLIYHASNLETGIPARFSGSGSGTEFTLTISSLQSEDFAVYYCLQSRKIPYTFGGGTKVEIKR | 8.41 |
| Hu67-4 (antibody, human IgG1, kappa, V domains shown) VH: EVQLVQSGAEVKKPGASVKVSCKASGYTFTDYHMNWVRQAPGQRLEWMGDINPDIGGTSYNQNFKGRVTITRDTSASTAYMELSSLRSEDTAVYYCARWDFDSFANWGQGTLVTVSS VL: DIQMTQSPSSLSASVGDRVTITCRASESVSIIGTNLIHWYQQKPGKAPKLLIYHASNLETGVPSRFSGSGSGTDFTLTISSLQPEDFATYYCLQSRKIPYTFGGGTKVEIKR | 8.49 |

Now for another entry.
Ask: Any idea what its pEC50 is? The binder is Hu67-11 (antibody, human IgG1, kappa, V domains shown) VH: EVQLVQSGAEVKKPGESLKISCKGSGYSFTDYHMNWVKQMPGKGLEWMGDINPDIGGTSYNQNFKGKVTISVDKSISTAYLQWSSLKASDTAMYYCARWDFDSFANWGQGTLVTVSS VL: DIVMTQSPDSLAVSLGERATINCRASESVSIIGTNLIHWYQQKPGQPPKLLIYHASNLETGVPDRFSGSGSGTDFTLTISSLQAEDVAVYYCLQSRKIPYTFGGGTKVEIKR
Reply: 8.65
